Data origin: patent US9096589B2

pIC50: −log10 of the molar value.
pIC50 tested on PDE10A (Homo sapiens (Human)): recorded values

- compound: "COCC(O)Cn1cc(-c2cncs2)nc1CCc1cn2c(C)cc(C)nc2n1 (stereo not shown)"
  pIC50: 7.24
- compound: "Cc1cc(C)n2cc(CCc3nc(-c4cccs4)cn3CCN3CCOCC3)nc2n1"
  pIC50: 7.44
- compound: "Cc1ccc(-c2cn(COCC[Si](C)(C)C)c(/C=C/c3nc4cccc(C)n4n3)n2)s1"
  pIC50: 6.68
- compound: "COc1cccn2nc(/C=C/c3nc(-c4cncs4)cn3C)nc12"
  pIC50: 7.07
- compound: "COc1cccn2nc(/C=C/c3nc(-c4ccsc4)cn3C)nc12"
  pIC50: 7.28
- compound: "Cc1ncc(C)n2nc(CCc3nc(-c4cccnc4)cn3C)nc12"
  pIC50: 8.05
- compound: "Cc1cc(C)n2cc(CCc3nc(-c4cccs4)cn3COCC[Si](C)(C)C)nc2n1"
  pIC50: 8.02
- compound: "Cc1cccc2nc(CCc3nc(-c4cccnc4)cn3C)nn12"
  pIC50: 7.15
- compound: "Cc1ncc(C)n2nc(CCc3nc(-c4cnccn4)cn3C)nc12"
  pIC50: 9.28
- compound: "COc1cccn2nc(CCc3nc(-c4cccs4)c[nH]3)nc12"
  pIC50: 7.55
- compound: "Cc1cccc2nc(CCc3nc(-c4cccs4)c[nH]3)nn12"
  pIC50: 9.27
- compound: "Cc1cc(C)n2cc(/C=C/c3nc(-c4cccnc4)cn3C)nc2n1"
  pIC50: 6.66
- compound: "Cc1cccc2nc(CCc3nc(-c4cccs4)cn3C[C@@H](O)CNCCO)nn12"
  pIC50: 7.52

###

# measured target: PDE10A (Homo sapiens (Human))
pIC50: −log10 of the molar value.
Use TRUE when the recorded pIC50 is no lower than 8; use FALSE when it is lower.

- item smiles: "COc1cccn2nc(CCc3nc(-c4cncs4)c[nH]3)nc12"
  category: "FALSE"
- item smiles: "Cc1ncc(C)n2nc(CCc3nc(-c4ccncc4)cn3C)nc12"
  category: "TRUE"
- item smiles: "Cc1cccc2nc(CCc3nc(-c4cccs4)cn3C[C@@H](O)CCl)nn12"
  category: "TRUE"
- item smiles: "CNC[C@H](O)Cn1cc(-c2cccs2)nc1CCc1nc2cccc(C)n2n1"
  category: "FALSE"
- item smiles: "CNCC[C@H](O)Cn1cc(-c2cccs2)nc1CCc1nc2cccc(C)n2n1"
  category: "FALSE"
- item smiles: "COc1cccn2nc(/C=C/c3nc(-c4cccs4)cn3C)nc12"
  category: "FALSE"
- item smiles: "Cc1cc(C)n2cc(/C=C/c3nc(-c4ccco4)cn3C)nc2n1"
  category: "FALSE"

###

pIC50: −log10 of the molar value.
pIC50 tested on PDE10A (Homo sapiens (Human), UniProt Q9Y233): recorded values
Sequence (Q9Y233 716-1055): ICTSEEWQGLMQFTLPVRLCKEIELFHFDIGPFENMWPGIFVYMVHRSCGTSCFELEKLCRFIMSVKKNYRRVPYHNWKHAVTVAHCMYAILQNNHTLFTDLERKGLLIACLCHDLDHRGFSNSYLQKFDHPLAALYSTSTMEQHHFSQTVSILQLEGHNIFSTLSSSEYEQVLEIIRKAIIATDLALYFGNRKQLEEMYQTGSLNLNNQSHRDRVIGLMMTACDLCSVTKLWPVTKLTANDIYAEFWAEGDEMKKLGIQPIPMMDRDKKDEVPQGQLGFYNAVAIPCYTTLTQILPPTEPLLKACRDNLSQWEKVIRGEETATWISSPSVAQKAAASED

- molecule: "Cc1cnc(C)n2nc(CCc3nc(-c4nccs4)cn3C)nc12"
  pIC50: 7.92
- molecule: "Cc1ncc(C)n2nc(CCc3nc(-c4cncs4)cn3C)nc12"
  pIC50: 8.16
- molecule: "Cc1cc(C)n2cc(CCc3nc(-c4cccs4)cn3CCC(C)C)nc2n1"
  pIC50: 8.17
- molecule: "Cc1cc(C)n2cc(CCc3nc(-c4cccs4)cn3CC(O)CF)nc2n1 (centres unmarked)"
  pIC50: 7.85
- molecule: "Cc1ccc(-c2cn(C)c(CCc3nc4c(C)ncc(C)n4n3)n2)o1"
  pIC50: 8.17
